Molecular target: T1, human GM-CSFRα-6His (human, UniProt P15509 23-320)
T1 construct: pTT5-GMRa-6his (ECD), made in 293F cells; also called GMRah; GMRa-6his(ECD)
T1 sequence: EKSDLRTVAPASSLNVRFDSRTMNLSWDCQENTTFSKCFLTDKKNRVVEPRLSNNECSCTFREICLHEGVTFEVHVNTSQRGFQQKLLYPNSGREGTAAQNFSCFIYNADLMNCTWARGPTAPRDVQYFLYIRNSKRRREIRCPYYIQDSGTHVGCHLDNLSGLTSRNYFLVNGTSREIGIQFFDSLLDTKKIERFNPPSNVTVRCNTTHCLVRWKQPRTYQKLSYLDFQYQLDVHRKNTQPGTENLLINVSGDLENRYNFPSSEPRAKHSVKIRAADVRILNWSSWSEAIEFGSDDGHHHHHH
Assay: competitive ELISA, title on the sheet 'Blocking GMRah binding to GM-CSF'; antibody (human IgG4) titrated; blocked ligand GM-CSF; x axis 'Log Ab concentration', no unit
quantity.name: binding result

* E94-IgG4 (antibody, V domains shown, human IgG4, human kappa) VH: QMQLVQSGAEVKKPGASVKVSCKVSGHTLTELSMHWVRQAPGKGLEWMGGFDPEDGETIYAQKFQGRVTMTGDTSTDTAYLELSSLRSEDTALYYCATGRYCETDICYGFDYWGQGTLVTVSS VL: EIVMTQSPATLSLSPGERATLSCRASQSVSSYLAWYQQKPGQAPRLLIYGASSRATGIPDRFSGSGSGTDFTLTISRLEPEDFAVYYCQQYNNWPPTFGQGTKLEIK | binds
* EII52-IgG4 (antibody, V domains shown, human IgG4, human kappa) VH: QMQLVQSGAEVKKPGASVKVSCKVSGYTLTELSIHWVRQAPGKGLEWMGGFDGDIEETIYAQKFQGRVTMTGDTSTDTAYLELSSLRSEDTALYYCATGRYTSLATTYGFDYWGQGTLVTVSS VL: EIVMTQSPATLSLSPGERATLSCRASQSVSSYLAWYQQKPGQAPRLLIYGASSRATGIPDRFSGSGSGTDFTLTISRLEPEDFAVYYCQQYANPPNTFGQGTKLEIK | binds
* E113-IgG4 (antibody, V domains shown, human IgG4, human kappa) VH: QMQLVQSGAEVKKPGASVKVSCKVSGYTLTELSIHWVRQAPGKGLEWMGGFDPEDGETIYAQKSQGRVTMTGDTSTDTAYLELSSLRSEDTALYYCATGRYTELFASYGFDYWGQGTLVTVSS VL: EIVMTQSPATLSLSPGERATLSCRASQSVSSYLAWYQQKPGQAPRLLIYGASSRATGIPDRFSGSGSGTDFTLTISRLEPEDFAVYYCQQYNNWPYTFGQGTKLEIK | binds
